Reference source: patent US11608335B2

// reported Fold selectivity for SST5 vs SST4 for each item listed
target-or-test-system: human somatostatin receptor subtype 4 (Homo sapiens, UniProt P31391)
Construct: expressed in transfected cells
Sequence (P31391 whole entry): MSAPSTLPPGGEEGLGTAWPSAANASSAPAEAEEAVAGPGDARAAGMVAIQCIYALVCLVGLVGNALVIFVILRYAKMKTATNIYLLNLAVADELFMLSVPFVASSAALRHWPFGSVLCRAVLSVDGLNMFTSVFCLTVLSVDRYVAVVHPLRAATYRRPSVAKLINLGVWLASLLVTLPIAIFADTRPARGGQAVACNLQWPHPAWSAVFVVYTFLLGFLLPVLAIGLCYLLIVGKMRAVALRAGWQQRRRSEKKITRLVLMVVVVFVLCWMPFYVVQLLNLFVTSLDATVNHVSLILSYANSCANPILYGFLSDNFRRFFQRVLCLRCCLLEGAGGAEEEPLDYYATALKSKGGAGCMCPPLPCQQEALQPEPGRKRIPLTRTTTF
method-description: cAMP assay for hSST4R (inhibition of cAMP via human SST4 receptor)
Format: cell-based
test-context: from inhibition of cAMP via human SST5 receptor and human SST4 receptor
Numeric only. Scale: fold

Example results:
- Cc1ccc(F)c2nc(-c3cncc(-c4cccc(C#N)c4)c3N3CC[C@H](N)C3)[nH]c12 [Compound 2-101]: 11
- C[C@]1(N)CCN(c2c(-c3ccnc(C#N)c3)cncc2-c2nc3c(F)cccc3[nH]2)C1 [Compound 2-162]: 109
- Cc1c(F)ccc2nc(-c3cncc(-c4ccnc(C#N)c4)c3N3CC[C@](C)(N)C3)[nH]c12 [Compound 2-164]: 323

Consider the record given below.
Asked: Provide one value: measured Fold selectivity for SST5 vs SST4 of CC(N)C1CN(c2c(-c3ccc(F)c(C#N)c3)cncc2-c2nc3cc(F)cc(F)c3[nH]2)C1 (stereo not shown) [Compound 1-65]
Given back: 384
